B1: PRPH (parent)
chain: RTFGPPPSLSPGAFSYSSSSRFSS

# Variants of: B1
# assayComment: protein stability index of a GFP-peptide fusion (GPS, HEK-293T) (PSI 1-6); higher = more stable;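 also: lentivirally expressed fusions sorted by FACS into six bins by GFP to DsRed ratio, PSI derived from sequencing read proportions per bin multiplied by bin number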
# setupConditions: c terminus: a fixed tail appended
valueType: protein stability index
Answer as a number with no unit attached.

Below are worked cases with known answers.
[[record]]
variantid = "S23Y"
endpointresult = 2.66

[[record]]
variantid = "S20K"
endpointresult = 3.81

[[record]]
variantid = "S23L"
endpointresult = 2.93

[[record]]
variantid = "P11D"
endpointresult = 3.45

[[record]]
variantid = "P5Q"
endpointresult = 2.6

[[record]]
variantid = "R21Y"
endpointresult = 2.08

[[record]]
variantid = "S24I"
endpointresult = 3.01

[[record]]
variantid = "S20L"
endpointresult = 2.48


Let us move to another entry and its protein stability index.
Fill in: protein stability index of S24R is ___ 3.85

The origin of these recorded values is the supplement of paper PMC10567573.
